binders and their reported SPOT signal as a fraction of Bim BH3's signal on the same receptor and array
- measured-target: Bcl-xL, Q07817
- Sequence (Q07817 1-209): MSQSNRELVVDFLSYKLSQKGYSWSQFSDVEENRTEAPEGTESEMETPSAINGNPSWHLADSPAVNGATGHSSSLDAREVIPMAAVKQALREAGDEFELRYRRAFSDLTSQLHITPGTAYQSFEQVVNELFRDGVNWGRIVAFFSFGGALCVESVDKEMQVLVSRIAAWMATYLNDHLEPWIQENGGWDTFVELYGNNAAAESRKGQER
- assay-overview: peptide SPOT array, c-Myc-tagged receptor at 1 uM or 100 nM, anti-c-Myc-Cy3
assay-readout: SPOT signal as a fraction of Bim BH3's signal on the same receptor and array

binder="WVKSIRICTPMGKLLDSCHPLTRKVP [PROK2]" val=1.23
binder="HHSSQEMSSEDREYADSFGKCPGGRN [PCYT2]" val=0.05
binder="DISLSNSGFKDVNFGCDYHQYRDKFS [PION]" val=0.03
binder="PKKKMTLSEIYQWICDNFPYYREAGS [FOXJ3]" val=0.33
binder="DSLLWKLAGLDRESGDVVLSGCSTLS [STK11IP]" val=0.06
binder="CHGLRELALNDHLLSDELLLALSSEK [FBXL3]" val=0.06
binder="RGRTRGWVQTLARMSRRTRGPVERAA [C6orf223]" val=0.75
binder="PSECETLGSNDGHNADLLNENNILAK [ZFP90]" val=0.11
binder="FRLAQMCGLHIVVHLDELEELINYYQ [CLTC]" val=0.02
binder="MSILTIASAVLEFVLDGIYNNTMGHV [TAP1]" val=0.06
binder="AVLCVECGYKDRFFGEDAEIAARELN [MSH3]" val=0.02
binder="NKDGKSVSNRLRRLSDNCGGKVLSIT [KIAA0430]" val=0.56
binder="KGTAVAICRRLGIFGDTEDVAGKAYT [ATP2A3]" val=0.23
binder="RYRHGAPAEQDRHLADMLTTKWATLQ [PLEKHH1]" val=0.71
